All values here come from PubChem BioAssay AID1159580.

Listed below: normalized growth values for each entry.
test: chemical genetic growth profiling, strain panel (AID 1159580);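 further: tested at 20 µM; growth read once vehicle control cultures reached saturation at 30 °C; 1 = growth at the plate median or of vehicle wells; lower values mean less growth of the strain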; details: S. cerevisiae deletion strains, growth OD, locus YLR330W, strain CHS5, active compounds read low
About 2,000 (36%) of roughly 5,500 compounds were called active. Inconclusive results (about 18%) are left out. Some of the results follow.

Before answering, review these 2 worked examples.
Fill in reported normalized growth for this entry: `COc1ccccc1-c1coc2cc(O)ccc2c1=O`
1.03 (inactive)

Fill in reported normalized growth for this entry: C=C[C@@](C)(O)CCC1C(=C)CCC2[C@@](C)(CO)CCC[C@]12C (some centres undefined)
1.05 (inactive)

Next:
Fill in reported normalized growth for this entry: `COc1ccc(C(=O)O)cc1OC`
1.01 (inactive)

Fill in reported normalized growth for this entry: `COc1ccc(-c2coc3cc(O)ccc3c2=O)c(OC)c1O`
0.99 (inactive)

Fill in reported normalized growth for this entry: `C=CCc1ccc(OC(=O)c2ccccc2)c(OC)c1`
0.983 (inactive)

Fill in reported normalized growth for this entry: `Oc1cc(O)c2c(c1)O[C@H](c1ccc(O)c(O)c1)[C@@H](O)C2`
1 (inactive)

Fill in reported normalized growth for this entry: C[C@]12CCC(=O)C=C1C=CC1C2CC[C@@]2(C)C1CC[C@@]2(O)CCC(=O)O (some centres undefined)
1.02 (inactive)

Fill in reported normalized growth for this entry: `NC(=O)c1ccc[n+]([C@@H]2O[C@H](COP(=O)([O-])OP(=O)(O)OC[C@H]3O[C@@H](n4cnc5c(N)ncnc54)[C@H](OP(=O)(O)O)[C@@H]3O)[C@@H](O)[C@H]2O)c1`
1.01 (inactive)

Fill in reported normalized growth for this entry: O=C1CCC(N2C(=O)c3ccccc3C2=O)C(=O)N1 (centres undefined)
1 (inactive)

Fill in reported normalized growth for this entry: `CN1CC(CO)=C[C@@H]2c3cccc4[nH]cc(c34)C[C@H]21`
1 (inactive)

Fill in reported normalized growth for this entry: `NS(=O)(=O)c1cc2c(cc1Cl)NC=NS2(=O)=O`
1.01 (inactive)

Fill in reported normalized growth for this entry: `CN(C)CCN(Cc1ccccc1)c1ccccn1`
0.999 (inactive)

Fill in reported normalized growth for this entry: `Oc1cc(O)c2c(c1)O[C@H](c1cc(O)c(O)c(O)c1)[C@H](O)C2`
1.01 (inactive)

Fill in reported normalized growth for this entry: `NCCc1cnc[nH]1`
1.01 (inactive)

Fill in reported normalized growth for this entry: C/C=C(\C)C(=O)O[C@H]1C[C@@H](OC(C)=O)[C@@]2(C(=O)OC)CO[C@@H]3C2[C@]12CO[C@](O)(C(=O)OC)[C@H]2[C@](C)(C12O[C@@]1(C)[C@H]1C[C@@H]2OC2OC=C[C@@]21O)[C@@H]3O (some centres undefined)
0.996 (inactive)

Fill in reported normalized growth for this entry: `CC[C@H]1OC(=O)[C@H](C)[C@@H](O[C@H]2C[C@@](C)(OC)[C@@H](O)[C@H](C)O2)[C@H](C)[C@@H](O[C@@H]2O[C@H](C)C[C@H](N(C)C)[C@H]2O)[C@](C)(OC)C[C@@H](C)C(=O)[C@H](C)[C@@H](O)[C@]1(C)O`
0.992 (inactive)

Fill in reported normalized growth for this entry: CCn1cc(C(=O)O)c(=O)c2cc(F)c(N3CCNC(C)C3)c(F)c21 (centres undefined)
0.982 (inactive)

Fill in reported normalized growth for this entry: CC1CCc2cc(F)cc3c(=O)c(C(=O)O)cn1c23 (centres undefined)
1.01 (inactive)

Fill in reported normalized growth for this entry: `O=c1c(-c2ccc(O)cc2)coc2cc(O)ccc12`
1 (inactive)

Fill in reported normalized growth for this entry: C[C@]12CCC(=O)C=C1C=CC1C2CC[C@@]2(C)C1CC[C@@]21CCC(=O)O1 (some centres undefined)
0.938 (inactive)

Fill in reported normalized growth for this entry: `O=C(O)/C=C/c1ccc(O)c(O)c1`
1.02 (inactive)
